Where do the numbers come from? From patent US20220267462A1.

# Cynomolgus EpCAM/Control per record follows
EXPERIMENTAL_TARGET: T1, cynomolgus EpCAM protein (cynomolgus, UniProt Q1WER1 27-265 (rhesus entry), limits assumed, biotinylated in the Octet assays (site not stated))
T1 construct: also called cy EpCAM; biotinylated cynomolgus EpCAM protein
T1 sequence: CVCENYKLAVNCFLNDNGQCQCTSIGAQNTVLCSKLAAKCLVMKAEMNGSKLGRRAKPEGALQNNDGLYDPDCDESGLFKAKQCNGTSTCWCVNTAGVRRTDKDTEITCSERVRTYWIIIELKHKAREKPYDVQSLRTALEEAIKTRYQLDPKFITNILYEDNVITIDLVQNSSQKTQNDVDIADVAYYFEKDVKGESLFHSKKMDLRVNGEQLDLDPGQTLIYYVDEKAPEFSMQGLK
ASSAY_PROTOCOL: colorimetric ELISA
# output: bare number, no unit

INSERT INTO measurements (binder, quantity_measured, observed_result) VALUES
  ('EPL31 (VHH) VHH: QVQLQESGGGLVHTGGSLRLSCAASGDTFLRYAMGWFRQAPGKEREFVAAITWNGGNTDYAGSLKGRFTISRDNTKNTVYLQMNSLKPEDTAVYYCAADLTFGLASSHYQYDYWGQGTQVTVSS', 'Cynomolgus EpCAM/Control', 6);

Input: Fill in: Cynomolgus EpCAM/Control of EPL126 (VHH) VHH: QVQLQESGGGLVQAGGSLRLSCAASGFIFRAASMGWYRQSPGNERELVATINSGGFTNYADSVKGRFTISRDNAKNTGYLQMNSLKPEDTAVYFCAATFLRSDGQPPIWGQGTQVTVSS is ___
Output: 4

Input: Likewise for EPL83 (VHH) VHH: QVQLQESGGGLVQAGGSLRLSCAVSGSIFSLNTLAWYRQAPGRQRDLIARITGGGTTVYADSVKGRFTISRDNAKNTVYLQMNSLKPEDTAVYYCNLMVRHPSGSTYEYWGQGTQVTVSS ?
Output: 2

Input: Likewise for EPL125 (VHH) VHH: QVQLQESGGGLVQAGGSLRLSCAASGNVFRAATMAWYRQVPEKQREMVATIASGGTTNYADFVKGRFTISRDNAKNTVYLQMNTLKPEDTAVYYCNALYLTSLGPKSYWGQGTQVTVSS ?
Output: 8
